Test system: SF-268 CNS
Experiment: NCI-60 one-dose screen, 48 h (100 = growth as untreated, 0 = no growth, -100 = all killed)
Details: 10 µM unless noted
This is part of a sample that, as a whole, favours compounds with a hit. Of some 83,000 tested, about 20% had one in any assay.
Class (by growth) -- LOW (below 20%), MEDIUM (20% to below 90%), HIGH (90% or more)

| Compound | Class |
| --- | --- |
| COc1cc(-c2nc3occn3c2-c2ccnc(NCCNS(=O)(=O)c3ccc(Cl)cc3)n2)ccc1F | MEDIUM |
| CN(C)C(=O)OCc1nc2c(N3CCOCC3)nc(-c3ccccc3)nc2n1C | LOW |
| CCN(CC)CCCC(Nc1c2ccc(Cl)cc2nc2ccc(OC)cc12)c1ccc(Cl)cc1 (stereo not given) | LOW |
| O=[N+]([O-])c1cccc(-c2nc(-c3ccc(Cl)cc3Cl)cn2-c2ccccc2)c1 | LOW |
| Fc1ccc2nc3c(cc2c1)CSc1nnc(-c2ccc[nH]c2=S)n1N3 | HIGH |
| Cc1cc(C)n(Nc2nc3ccccc3[nH]c2=O)c(=O)c1C#N | HIGH |
| CCN1C(=O)/C(=c2\sc3n(c2=O)NC2C(N=3)N(CC)C(=O)N2CC)c2ccccc21 (stereo not given) | MEDIUM |
| C=C1C(=O)O[C@H]2[C@H]1CC/C(COC(=O)CCCCCC(=O)OC/C1=C/CC[C@@]3(C)O[C@H]3[C@H]3OC(=O)C(=C)[C@@H]3CC1)=C\CC[C@@]1(C)O[C@@H]21 | MEDIUM |
| O=C(N/N=C/c1ccncc1)c1ccccc1Nc1cccc(C(F)(F)F)c1 | MEDIUM |
| Fc1ccc(C2CC(c3cccc(Nc4ccncc4)c3)=NN2c2ccccc2)cc1 (stereo not given) | MEDIUM |
| C[C@H]1[C@H](C)CC[C@]2(CO)CC[C@]3(C)C(=CC[C@@H]4[C@@]5(C)CCCNC(C)(C)[C@@H]5CC[C@]43C)[C@H]12 | LOW |
| COc1ccc(-c2nc(N/N=C/c3ccco3)nc(N3CCOCC3)c2C#N)cc1 | MEDIUM |
| Clc1nc(Nc2ccccc2)nc(Nc2ccccc2)n1 | HIGH |
| C(=C\c1n(Cc2ccc3ccccc3c2)c(-c2ccccc2)c(-c2ccccc2)[n+]1Cc1ccc2ccccc2c1)/c1ccccc1 | LOW |
| CN1CCN(CCCOc2ccc3ncnc(Nc4ccc(Oc5cccc(C(F)(F)F)c5)c(Cl)c4)c3c2)CC1 | MEDIUM |
| COc1ccc2c(Nc3ccc(NS(C)(=O)=O)cc3)c3ccccc3nc2c1 | LOW |
| CC1CCN(C(=O)OCc2nc3nc(Cl)nc(N4CCOCC4)c3[nH]2)CC1 | LOW |
| O=C1/C(=C\c2cn(Cc3ccccc3)c3ccc(Br)cc23)c2ccccc2N1c1c(Cl)cccc1Cl | HIGH |
| O=S(=O)(NCCCNc1nccc(-c2c(-c3cccc(O)c3)nc3occn23)n1)c1ccc(Br)cc1 | HIGH |
| CC(=O)O[C@]1(C(C)=O)CC[C@H]2[C@@H]3C=C(Cl)C4=CC(=O)CC[C@]4(C)[C@H]3CC[C@@]21C | HIGH |
| CC[C@H](C)[C@@H]1NC(=O)[C@H](Cc2ccc(O)cc2)N(C)C(=O)[C@H](Cc2ccccc2)NC(=O)CN(C)C(=O)[C@@H]2CCCN2C(=O)[C@@H](Cc2ccccc2)N(C)C(=O)[C@H](CC(C)C)NC1=O | LOW |
| COC(=O)N[C@H]1CCc2cc(OC)c(OC)c(OC)c2-c2ccc(SC)c(=O)cc21 | LOW |
| C=C(C)[C@@H]1CC[C@]2(CO)CC[C@]3(C)[C@H](CC[C@@H]4[C@@]5(C)CCCNC(C)(C)[C@@H]5CC[C@]43C)[C@@H]12 | MEDIUM |
| N#Cc1ccc(-c2ccc3c(c2)NC(=O)/C3=C\c2ccc[nH]2)cc1 | HIGH |
| C[C@]12C[C@H]1CC[C@]1(C)[C@@H]2CC[C@@]23C[C@H](CC[C@H]21)[C@@](O)(CO)C3 | HIGH |
| [O-][n+]1ccccc1CCN(O)CCc1cccc[n+]1[O-] | HIGH |
| C[C@]12CCc3nc(Nc4cccc(O)c4)sc3C1=CC[C@@H]1[C@@H]2CC[C@]2(C)/C(=N\NC(N)=S)CC[C@@H]12 | MEDIUM |
| CC1=CC2(C)/C=C(C)/C=C\CC(O)/C=C3/C=CC(=C4C(=O)OC2(CC1C)C4=O)OC3 (stereo not given) | LOW |
| CSc1nnc2c(=O)n(C)c(=O)n(C)c2n1 | HIGH |
| CCCCCOc1ccc(/C=N/Nc2cc(C)nc3ccc(Br)cc23)cc1 | MEDIUM |
| COc1cc(-c2nc3sccn3c2-c2ccnc(NCCNS(=O)(=O)c3ccc(F)cc3)n2)ccc1F | LOW |
